B1: Poly(rC)-binding protein 1, residues 278 to 350; numbered along this chain, Q15365 (parent)
chain: TQTTHELTIPNNLIGCIIGRQGANINEIRQMSGAQIKIANPVEGSSGRQVTITGSAASISLAQYLINARLSSE

Variants of: B1
experimental protocol: abundance fitness (aPCA) (normalised: wild type 0, dead -1); higher = more abundant; growth selection in yeast, the domain comes from the species named
experimental conditions: Homo sapiens
Decision: abundance fitness >= -0.3 yields yes (1), all other cases yield no (0).

Reference set, count: 5
INSERT INTO assay_data (mutation_key, discrete_label) VALUES
  ('N26C', 'yes (1)'),
  ('N24Q', 'yes (1)'),
  ('H5A', 'yes (1)'),
  ('L7R', 'no (0)'),
  ('E73F', 'yes (1)');

Evaluate "V50E" : abundance fitness at minimum -0.3?
no (0)

Is the recorded value of abundance fitness equal to or greater than -0.3 for this variant? "Y64Q"
yes (1)

Evaluate "I28P" : abundance fitness at minimum -0.3?
no (0)

Please tell me: is the variant "A23V" at or over -0.3 in terms of abundance fitness?
yes (1)

In plain terms: is recorded abundance fitness at least -0.3 for "I18T" ?
yes (1)

Is abundance fitness for "N40E" at or above -0.3?
yes (1)

Entry "I17M" : is its abundance fitness no less than -0.3?
no (0)

Record "Q63W" ; criterion: abundance fitness no lower than -0.3. Met?
yes (1)

Evaluate "E6W" : abundance fitness at minimum -0.3?
yes (1)

API: above_or_equal(metric=abundance fitness, cutoff=-0.3) for item "I59V"
yes (1)

Check the entry "A56Y" : does abundance fitness equal or exceed -0.3?
yes (1)

Check the entry "R48T" : does abundance fitness equal or exceed -0.3?
yes (1)

Where do the numbers come from? From the Human Domainome abundance scans (Beltran et al. 2025).
